- test.target: Squalene synthase (Candida albicans)
- protocol.summary: Inhibition of Candida albicans squalene synthase(SQS)
measurement.name: IC50 (nM)

C=C(CC[C@]12O[C@H](C(=O)O)[C@@](O)(C(=O)O)[C@](C(=O)O)(O1)[C@H](OC(=O)CCCCCCc1ccccc1)[C@H]2O)[C@@H](OC(C)=O)[C@H](C)Cc1ccccc1 :: 7
C=C(CC[C@]12O[C@H](C(=O)O)[C@@](O)(C(=O)O)[C@](C(=O)O)(O1)[C@H](OC(=O)OCCCC)[C@H]2O)[C@@H](OC(C)=O)[C@H](C)Cc1ccccc1 :: 8

###

- test.target: Squalene synthase (Candida albicans)
- protocol.summary: Inhibition of Candida albicans squalene synthase(SQS)
pIC50: −log10 of the molar value.
measurement.name: pIC50

(1) C=C(CC[C@]12O[C@H](C(=O)O)[C@@](O)(C(=O)O)[C@](C(=O)O)(O1)[C@H](OC(=O)OCCCCCCCCC)[C@H]2O)[C@@H](OC(C)=O)[C@H](C)Cc1ccccc1
(2) C=C(CC[C@]12O[C@H](C(=O)O)[C@@](O)(C(=O)O)[C@](C(=O)O)(O1)[C@H](OC(=O)/C=C/c1ccccc1)[C@H]2O)[C@@H](OC(C)=O)[C@H](C)Cc1ccccc1
Return label of the item with the larger pIC50. Candidates: 1 , 2 . Please reply using the label of the selected record.
1
(1: 8.70, 2: 8.00)
